log10 minimal effective dose values by entry
tested on: Mus musculus; experiment: Cognition enhancing activity in sc dosed mouse assessed as reversal of scopolamine-induced amnesia measured up to 24 hrs treated 20 mins before training session by passive-avoidance test; type: functional; settings: read-out: MED
Please keep in mind that the values are log10 of minimal effective dose expressed in mg/kg.

CC(=O)N1CCN(S(=O)(=O)c2ccc(F)cc2)CC1C (centres undefined) ... 0.00
NC(=O)CN1CCCC1=O ... 1.48
CC(=O)N1CCN(S(=O)(=O)c2ccc(F)cc2)CC1 ... -2.00
CC(=O)N1CCN(S(=O)(=O)c2ccc(F)cc2)C(C)C1 (centres undefined) ... -1.00
CCC(=O)N1CCN(C(=O)c2ccccc2)CC1c1ccccc1 (racemic) ... -1.00

Input: Fill in log10 minimal effective dose for CCC(=O)N1CCN(C(=O)c2ccccc2)C[C@@H]1c1ccccc1 tested with Mus musculus.
Output: 0.00

Input: Please indicate recorded log10 minimal effective dose of CCC(=O)N1CCN(C(=O)c2ccccc2)CC1Cc1ccccc1 (centres undefined) measured with Mus musculus.
Output: 0.00

Input: Retrieve log10 minimal effective dose on Mus musculus; query O=C1c2ccccc2C2CN(S(=O)(=O)c3ccc(F)cc3)CCN12 (centres undefined)
Output: -1.00

Input: Send back Mus musculus log10 minimal effective dose of CCC(=O)N1CCN(C(=O)c2ccccc2)C[C@H]1c1ccccc1 only.
Output: -1.00

Input: Param request: log10 minimal effective dose | system Mus musculus | item CCC(=O)N1CCN(C(=O)c2ccccc2)C(Cc2ccccc2)C1 (centres undefined)
Output: 0.00

Input: Enter log10 minimal effective dose (test system Mus musculus) for CC(=O)N1CCN(S(=O)(=O)c2ccc(F)cc2)C(c2ccccc2)C1 (centres undefined)
Output: 1.00
